Where do these numbers come from? They come from patent US11168073B2.

- Measured On: recombinant human VAP-1 (Homo sapiens)
- Construct: purchased R&D systems
- Sequence (Q16853 whole entry): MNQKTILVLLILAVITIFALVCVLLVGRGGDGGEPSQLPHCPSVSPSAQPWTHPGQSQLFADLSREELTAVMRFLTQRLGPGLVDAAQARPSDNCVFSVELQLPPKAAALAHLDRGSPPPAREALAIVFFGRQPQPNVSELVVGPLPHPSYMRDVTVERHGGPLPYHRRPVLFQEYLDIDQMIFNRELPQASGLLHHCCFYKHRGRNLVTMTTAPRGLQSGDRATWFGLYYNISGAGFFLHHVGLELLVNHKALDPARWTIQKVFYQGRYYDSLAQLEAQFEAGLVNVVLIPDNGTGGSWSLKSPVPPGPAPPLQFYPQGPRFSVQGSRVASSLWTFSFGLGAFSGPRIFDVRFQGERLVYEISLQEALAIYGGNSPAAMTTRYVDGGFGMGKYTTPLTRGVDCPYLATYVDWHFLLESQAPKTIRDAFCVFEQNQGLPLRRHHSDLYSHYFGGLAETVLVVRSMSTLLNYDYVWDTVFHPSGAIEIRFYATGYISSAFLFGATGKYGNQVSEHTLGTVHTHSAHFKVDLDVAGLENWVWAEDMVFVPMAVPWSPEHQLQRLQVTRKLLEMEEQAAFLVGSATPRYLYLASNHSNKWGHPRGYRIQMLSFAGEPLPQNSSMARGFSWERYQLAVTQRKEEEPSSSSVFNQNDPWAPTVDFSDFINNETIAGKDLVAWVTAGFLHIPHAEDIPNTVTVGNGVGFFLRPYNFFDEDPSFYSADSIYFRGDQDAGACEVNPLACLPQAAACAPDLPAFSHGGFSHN
- Test Name: Activity evaluation on recombinant human VAP-1 (Amplex Red/HRP-coupled hydrogen peroxide assay, benzylamine substrate)
- Type: biochemical
- Study Conditions: recombinant human VAP-1, benzylamine substrate; read-out: Inhibitory Activity (IC50, nM) human VAP-1
Counter-ions that a name gives are not always drawn.
Observation Type: log10(IC50) (log10 of the value in nM)

- Compound: "CCn1cc(-c2cccc(-c3ccc(Cn4cnn(CC(CN)=C(F)F)c4=O)s3)c2)cn1 [Example 287, Trifluoroacetate]"
  Readout Value: -0.15
- Compound: "NCC(Cn1ncn(-c2cccc(-c3ccc4c(c3)NC(=O)OC4)n2)c1=O)=C(F)F [Example 219, Trifluoroacetate]"
  Readout Value: -0.70
- Compound: "NCC(Cn1ncn(Cc2cc3ccc(-c4ccc5c(c4)OCO5)cc3s2)c1=O)=C(F)F [Example 201, Trifluoroacetate]"
  Readout Value: 0.45
- Compound: "CS(=O)(=O)c1ccc(-c2ccc(Cn3cnn(CC(CN)=C(F)F)c3=O)cc2)cc1 [Example 265, Trifluoroacetate]"
  Readout Value: 0.15
- Compound: "NCC(Cn1ncn(Cc2cc3cc(-c4ccc5c(c4)OCO5)ccc3s2)c1=O)=C(F)F [Example 209, Trifluoroacetate]"
  Readout Value: 0.63
- Compound: "CN(C)c1ccc(-c2ccc3sc(Cn4cnn(CC(CN)=C(F)F)c4=O)cc3c2)cn1 [Example 208, Trifluoroacetate]"
  Readout Value: 0.40
- Compound: "Cc1cc(-c2ccc(C(=O)N3CCOCC3)cc2)cnc1-n1cnn(CC(CN)=C(F)F)c1=O [Example 236, Trifluoroacetate]"
  Readout Value: -0.10
- Compound: "Cc1cc(-c2cccc(Cn3cnn(CC(CN)=C(F)F)c3=O)c2)cc2c1NC(=O)CC2 [Example 275, Trifluoroacetate]"
  Readout Value: -0.05
- Compound: "Cc1c(-c2ccc(N3CCNCC3)cc2)cccc1-n1cnn(CC(CN)=C(F)F)c1=O [Example 254, Ditrifluoroacetate]"
  Readout Value: 0.90
- Compound: "Cc1cc(-c2ccc3c(c2)NC(=O)CO3)cnc1-n1cnn(CC(CN)=C(F)F)c1=O [Example 221, Trifluoroacetate]"
  Readout Value: -0.52
- Compound: "CCn1cc(-c2ccc3sc(Cn4cnn(CC(CN)=C(F)F)c4=O)cc3c2)cn1 [Example 212, Trifluoroacetate]"
  Readout Value: 0.18
- Compound: "Cc1cc(C#Cc2ccc3c(n2)OCCN3)cnc1-n1cnn(CC(CN)=C(F)F)c1=O [Example 246, ditrifluoroacetate]"
  Readout Value: 0.36
- Compound: "NCC(Cn1ncn(Cc2ccc(-c3ccc(N4CCNCC4)cc3)cc2)c1=O)=C(F)F [Example 266, Ditrifluoroacetate]"
  Readout Value: 0.96
- Compound: "Cc1c(-c2ccc3c(c2)CCC(=O)N3C)cccc1-n1cnn(CC(CN)=C(F)F)c1=O [Example 259, Trifluoroacetate]"
  Readout Value: 0.11
- Compound: "CC(C)n1cc(-c2csc(Cn3cnn(CC(CN)=C(F)F)c3=O)c2)ccc1=O [Example 187, Trifluoroacetate]"
  Readout Value: 0.04
- Compound: "Cc1cc(C#Cc2cnc3c(c2)OCCN3)cnc1-n1cnn(CC(CN)=C(F)F)c1=O [Example 245, ditrifluoroacetate]"
  Readout Value: 0.43
- Compound: "NCC(Cn1ncn(Cc2sc(-c3ccc4c(c3)OCO4)cc2F)c1=O)=C(F)F [Example 300, Trifluoroacetate]"
  Readout Value: 0.23
- Compound: "CS(=O)(=O)c1ccc(-c2ccc3sc(Cn4cnn(CC(CN)=C(F)F)c4=O)cc3c2)cc1 [Example 205, Trifluoroacetate]"
  Readout Value: -0.10
- Compound: "COc1ccc(-c2cnc(-n3cnn(CC(CN)=C(F)F)c3=O)c(C)c2)cn1 [Example 225, Trifluoroacetate]"
  Readout Value: -0.30
- Compound: "CCn1cc(-c2ccc(Cn3cnn(CC(CN)=C(F)F)c3=O)cc2)cn1 [Example 264, Trifluoroacetate]"
  Readout Value: 0.11
- Compound: "CCn1cc(-c2csc(Cn3cnn(CC(CN)=C(F)F)c3=O)c2)ccc1=O [Example 193, Trifluoroacetate]"
  Readout Value: 0.11
- Compound: "Cc1cc(-c2ccccc2Cn2cnn(CC(CN)=C(F)F)c2=O)cc2c1NC(=O)CC2 [Example 283, Trifluoroacetate]"
  Readout Value: 2.19
- Compound: "CCn1cc(-c2cccc(-n3cnn(CC(CN)=C(F)F)c3=O)n2)ccc1=O [Example 218, Trifluoroacetate]"
  Readout Value: -0.10
- Compound: "CN(C)c1ccc(-c2cc(F)c(Cn3cnn(CC(CN)=C(F)F)c3=O)s2)cn1 [Example 303, trifluoroacetate]"
  Readout Value: -0.10
- Compound: "NCC(Cn1ncn(Cc2ccc(-c3cnn(CC4CC4)c3)s2)c1=O)=C(F)F [Example 295, Trifluoroacetate]"
  Readout Value: -0.52
- Compound: "CN(C)c1ccc(-c2ccc(Cn3cnn(CC(CN)=C(F)F)c3=O)cc2)cn1 [Example 267, Trifluoroacetate]"
  Readout Value: 0.04
- Compound: "CN(C)c1ccc(-c2ccccc2Cn2cnn(CC(CN)=C(F)F)c2=O)cn1 [Example 281, Trifluoroacetate]"
  Readout Value: 2.49

* * *

// reported IC50 per item
- Measured On: recombinant human DAO (diamine oxidase) (Homo sapiens)
- Construct: purchased R&D systems
- Test Name: Activity evaluation on recombinant human DAO (Amplex Red/HRP-coupled assay, 1 mM putrescine substrate)
- Format: biochemical
- Study Conditions: 1 mM putrescine substrate, read-out: Inhibitory Activity (IC50, nM) DAO
Where a name gives a salt, the structure may show the parent alone.
Observation Type: IC50 (nM)

- Compound: "CN(C)C(=O)c1cccc(-c2ccc(Cn3cnn(CC(CN)=C(F)F)c3=O)s2)c1 [Example 181, trifluoroacetate]"
  Measured On: "recombinant human DAO (diamine oxidase) (Homo sapiens)"
  Unit Info: "nM"
  Result Qualifier: ">"
  Readout Value: 10000
- Compound: "Cc1c(-c2ccc(N(C)C)nc2)cccc1-n1cnn(CC(CN)=C(F)F)c1=O [Example 256, Trifluoroacetate]"
  Measured On: "recombinant human DAO (diamine oxidase) (Homo sapiens)"
  Unit Info: "nM"
  Result Qualifier: ">"
  Readout Value: 100000
- Compound: "CC(C)n1cc(-c2ccc(Cn3cnn(CC(CN)=C(F)F)c3=O)s2)cn1 [Example 184, Trifluoroacetate]"
  Measured On: "recombinant human DAO (diamine oxidase) (Homo sapiens)"
  Unit Info: "nM"
  Result Qualifier: "="
  Readout Value: 72000
- Compound: "NCC(Cn1ncn(-c2cccc(-c3ccc4c(c3)NC(=O)OC4)n2)c1=O)=C(F)F [Example 219, Trifluoroacetate]"
  Measured On: "recombinant human DAO (diamine oxidase) (Homo sapiens)"
  Unit Info: "nM"
  Result Qualifier: "="
  Readout Value: 47
- Compound: "NCC(Cn1ncn(Cc2ccc(-c3ccc4c(c3)OCO4)cc2)c1=O)=C(F)F [Example 268, Trifluoroacetate]"
  Measured On: "recombinant human DAO (diamine oxidase) (Homo sapiens)"
  Unit Info: "nM"
  Result Qualifier: ">"
  Readout Value: 100000
- Compound: "Cc1cc(C#Cc2ccc(N(C)C)nc2)cnc1-n1cnn(CC(CN)=C(F)F)c1=O [Example 241, Trifluoroacetate]"
  Measured On: "recombinant human DAO (diamine oxidase) (Homo sapiens)"
  Unit Info: "nM"
  Result Qualifier: "="
  Readout Value: 25000
- Compound: "Cc1c(-c2ccc(S(C)(=O)=O)cc2)cccc1-n1cnn(CC(CN)=C(F)F)c1=O [Example 253, Trifluoroacetate]"
  Measured On: "recombinant human DAO (diamine oxidase) (Homo sapiens)"
  Unit Info: "nM"
  Result Qualifier: "="
  Readout Value: 8700
- Compound: "NCC(Cn1ncn(Cc2ccc(-c3cnn(CC4CC4)c3)s2)c1=O)=C(F)F [Example 295, Trifluoroacetate]"
  Measured On: "recombinant human DAO (diamine oxidase) (Homo sapiens)"
  Unit Info: "nM"
  Result Qualifier: ">"
  Readout Value: 100000

* * *

- Measured On: recombinant human DAO (diamine oxidase) (Homo sapiens, UniProt P19801)
- Construct: purchased R&D systems
- Sequence (P19801 20-751): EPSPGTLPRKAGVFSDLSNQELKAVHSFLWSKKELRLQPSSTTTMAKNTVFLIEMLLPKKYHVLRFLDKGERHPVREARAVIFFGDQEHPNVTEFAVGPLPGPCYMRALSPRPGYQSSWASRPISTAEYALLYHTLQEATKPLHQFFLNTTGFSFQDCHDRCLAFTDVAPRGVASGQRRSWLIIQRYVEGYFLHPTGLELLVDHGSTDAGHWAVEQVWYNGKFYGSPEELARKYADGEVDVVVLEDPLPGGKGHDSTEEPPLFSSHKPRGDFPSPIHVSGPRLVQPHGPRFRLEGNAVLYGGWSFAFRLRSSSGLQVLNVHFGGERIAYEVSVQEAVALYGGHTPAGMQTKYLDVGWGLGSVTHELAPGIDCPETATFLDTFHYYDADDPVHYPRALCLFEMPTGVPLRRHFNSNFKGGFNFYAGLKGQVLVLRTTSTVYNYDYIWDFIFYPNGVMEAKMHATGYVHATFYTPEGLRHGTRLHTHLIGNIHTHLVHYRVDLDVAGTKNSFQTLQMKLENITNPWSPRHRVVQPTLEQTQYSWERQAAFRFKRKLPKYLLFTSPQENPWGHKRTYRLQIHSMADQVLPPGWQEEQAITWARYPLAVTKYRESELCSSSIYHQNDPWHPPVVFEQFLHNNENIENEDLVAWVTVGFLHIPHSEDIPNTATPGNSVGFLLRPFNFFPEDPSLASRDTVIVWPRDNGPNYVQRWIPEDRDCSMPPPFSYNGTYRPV
- Test Name: Activity evaluation on recombinant human DAO (Amplex Red/HRP-coupled assay, 1 mM putrescine substrate)
- Type: biochemical
- Study Conditions: 1 mM putrescine, read-out: Inhibitory Activity (IC50, nM) DAO
Counter-ions that a name gives are not always drawn.
// reported IC50 per item
Observation Type: IC50

- Compound: "CN(C)c1ccc(C#Cc2ccc(Cn3cnn(CC(CN)=C(F)F)c3=O)s2)cn1 [Example 162, Trifluoroacetate]"
  Measured On: "recombinant human DAO (diamine oxidase) (Homo sapiens, UniProt P19801)"
  Readout Value: "> 10000 nM"
- Compound: "NCC(Cn1ncn(CCc2ccc(-c3ccc(N4CCNCC4)cc3)s2)c1=O)=C(F)F [Example 174, Ditrifluoroacetate]"
  Measured On: "recombinant human DAO (diamine oxidase) (Homo sapiens, UniProt P19801)"
  Readout Value: "29 nM"
- Compound: "NCC(Cn1ncn(Cc2ccc(-c3ccc(N4CCNCC4)nc3)s2)c1=O)=C(F)F [Example 114, Ditrifluoroacetate]"
  Measured On: "recombinant human DAO (diamine oxidase) (Homo sapiens, UniProt P19801)"
  Readout Value: "970 nM"
- Compound: "CS(=O)(=O)c1ccc(-c2cc(-n3cnn(CC(CN)=C(F)F)c3=O)ccn2)cc1 [Example 61, Trifluoroacetate]"
  Measured On: "recombinant human DAO (diamine oxidase) (Homo sapiens, UniProt P19801)"
  Readout Value: "19 nM"
- Compound: "NCC(Cn1ncn(-c2ccc(-c3ccc(C(F)(F)F)nc3)nc2)c1=O)=C(F)F [Example 40, Trifluoroacetate]"
  Measured On: "recombinant human DAO (diamine oxidase) (Homo sapiens, UniProt P19801)"
  Readout Value: "12 nM"
- Compound: "Cc1cc(Br)sc1Cn1cnn(CC(CN)=C(F)F)c1=O [Example 99, Trifluoroacetate]"
  Measured On: "recombinant human DAO (diamine oxidase) (Homo sapiens, UniProt P19801)"
  Readout Value: "> 100000 nM"
- Compound: "NCC(Cn1ncn(-c2ccc(-c3ccc(N4CCNCC4)cc3)cc2F)c1=O)=C(F)F [Example 32, Ditrifluoroacetate]"
  Measured On: "recombinant human DAO (diamine oxidase) (Homo sapiens, UniProt P19801)"
  Readout Value: "670 nM"
